Hey, just so you know, these numbers are from patent US9034876B2.

Assay: Compound quantification (PK) in plasma, paw and spleen of CAIA mice
Format: in vivo
Conditions: DBA/1, mouse, paw, oral; 55 mg/kg p.o., 2 hrs post-administration, day 20, mean±SEM, N=3; read-out: concentration in paw
observationType: concentration at 2 h (ng/mL)
Kindly provide the numeric value in ng/mL only, without the unit symbol.

Query string: Consider the compound shown here: `CN1CCN(c2cccc(Nc3nc4c(-c5ccc(S(C)(=O)=O)cc5)cccn4n3)c2)CC1` What is its recorded concentration at 2 h?
Result string: 660

----------
Assay: Compound quantification (PK) in plasma, paw and spleen of CAIA mice
Assay type: in vivo
Details: DBA/1, mouse, plasma, oral; 55 mg/kg p.o., 2 hrs post-administration, day 20, mean±SEM, N=3; read-out: concentration in plasma
observationType: concentration at 2 h (ng/mL)
A number alone suffices; assume ng/mL.

Query string: Dear colleague, I am looking for the recorded concentration at 2 h of the following compound: `CN1CCN(c2cccc(Nc3nc4c(-c5ccc(S(C)(=O)=O)cc5)cccn4n3)c2)CC1`
Result string: 3160

----------
Test: Compound quantification (PK) in plasma, paw and spleen of CAIA mice
Assay type: in vivo
Settings: DBA/1, mouse, plasma, oral; 10 mg/kg p.o., 6 hrs post-administration, day 20, mean±SEM, N=3; read-out: concentration in plasma
observationType: concentration at 6 h (ng/mL)
Supply the numeric figure in ng/mL, leaving out any unit text.

Query string: // lookup concentration at 6 h for CN1CCN(c2cccc(Nc3nc4c(-c5ccc(S(C)(=O)=O)cc5)cccn4n3)c2)CC1 [Compound A]
Result string: 433

----------
Test: Compound quantification (PK) in plasma, paw and spleen of CAIA mice
Assay type: in vivo
Conditions: DBA/1, mouse, plasma, oral; 55 mg/kg p.o., 6 hrs post-administration, day 20, mean±SEM, N=3; read-out: concentration in plasma
observationType: concentration at 6 h

Query string: Give the measured concentration at 6 h of `CN1CCN(c2cccc(Nc3nc4c(-c5ccc(S(C)(=O)=O)cc5)cccn4n3)c2)CC1` .
Result string: 1480 ng/mL

----------
Assay: Compound quantification (PK) in plasma, paw and spleen of CAIA mice
Format: in vivo
Conditions: DBA/1, mouse, spleen, oral; 55 mg/kg p.o., 2 hrs post-administration, day 20, mean±SEM, N=3; read-out: concentration in spleen
observationType: concentration at 2 h

Query string: For the compound shown here, `CN1CCN(c2cccc(Nc3nc4c(-c5ccc(S(C)(=O)=O)cc5)cccn4n3)c2)CC1` , give the reported concentration at 2 h.
Result string: 3900 ng/mL

----------
Assay: Compound quantification (PK) in plasma, paw and spleen of CAIA mice
Type: in vivo
Conditions: DBA/1, mouse, paw, oral; 10 mg/kg p.o., 2 hrs post-administration, day 20, mean±SEM, N=3; read-out: concentration in paw
observationType: concentration at 2 h (ng/mL)
Express your answer in ng/mL, writing the number without its unit.

Query string: Which value of concentration at 2 h has been reported for `CN1CCN(c2cccc(Nc3nc4c(-c5ccc(S(C)(=O)=O)cc5)cccn4n3)c2)CC1` in the records?
Result string: 214

----------
Assay: Compound quantification (PK) in plasma, paw and spleen of CAIA mice
Assay type: in vivo
Conditions: DBA/1, mouse, paw, oral; 30 mg/kg p.o., 2 hrs post-administration, day 20, mean±SEM, N=3; read-out: concentration in paw
observationType: concentration at 2 h (ng/mL)
Numbers only; they are read as ng/mL.

Query string: Need concentration at 2 h of `CN1CCN(c2cccc(Nc3nc4c(-c5ccc(S(C)(=O)=O)cc5)cccn4n3)c2)CC1` , thanks.
Result string: 508

----------
Test: Compound quantification (PK) in plasma, paw and spleen of CAIA mice
Assay type: in vivo
Conditions: DBA/1, mouse, spleen, oral; 10 mg/kg p.o., 6 hrs post-administration, day 20, mean±SEM, N=3; read-out: concentration in spleen
observationType: concentration at 6 h (ng/mL)
Only the number, expressed in ng/mL, is required.

Query string: What value of measured concentration at 6 h is listed for `CN1CCN(c2cccc(Nc3nc4c(-c5ccc(S(C)(=O)=O)cc5)cccn4n3)c2)CC1` ?
Result string: 273

----------
Experiment: Compound quantification (PK) in plasma, paw and spleen of CAIA mice
Assay type: in vivo
Details: DBA/1, mouse, plasma, oral; 10 mg/kg p.o., 2 hrs post-administration, day 20, mean±SEM, N=3; read-out: concentration in plasma
observationType: concentration at 2 h
Respond with a number, then the unit of measure.

Query string: Suppose we examine the compound CN1CCN(c2cccc(Nc3nc4c(-c5ccc(S(C)(=O)=O)cc5)cccn4n3)c2)CC1 [Compound A] ; what concentration at 2 h value has been reported?
Result string: 1160 ng/mL

----------
Experiment: Compound quantification (PK) in plasma, paw and spleen of CAIA mice
Format: in vivo
Settings: DBA/1, mouse, spleen, oral; 30 mg/kg p.o., 6 hrs post-administration, day 20, mean±SEM, N=3; read-out: concentration in spleen
observationType: concentration at 6 h (µg/mL)
Answer format: numeric, µg/mL implied, no suffix.

Query string: Looking for the measured concentration at 6 h of CN1CCN(c2cccc(Nc3nc4c(-c5ccc(S(C)(=O)=O)cc5)cccn4n3)c2)CC1 [Compound A] , can you help?
Result string: 1.17

----------
Test: Compound quantification (PK) in plasma, paw and spleen of CAIA mice
Type: in vivo
Conditions: DBA/1, mouse, spleen, oral; 55 mg/kg p.o., 6 hrs post-administration, day 20, mean±SEM, N=3; read-out: concentration in spleen
observationType: concentration at 6 h (ng/mL)
Just the number please, in ng/mL, no unit attached.

Query string: If you can, please state the reported concentration at 6 h value of CN1CCN(c2cccc(Nc3nc4c(-c5ccc(S(C)(=O)=O)cc5)cccn4n3)c2)CC1 [Compound A] .
Result string: 2350

----------
Assay: Compound quantification (PK) in plasma, paw and spleen of CAIA mice
Type: in vivo
Details: DBA/1, mouse, paw, oral; 10 mg/kg p.o., 6 hrs post-administration, day 20, mean±SEM, N=3; read-out: concentration in paw
observationType: concentration at 6 h (ng/mL)
Give your result in ng/mL as a bare value.

Query string: Which concentration at 6 h reading was recorded for the compound `CN1CCN(c2cccc(Nc3nc4c(-c5ccc(S(C)(=O)=O)cc5)cccn4n3)c2)CC1` ?
Result string: 172

----------
Test: Compound quantification (PK) in plasma, paw and spleen of CAIA mice
Type: in vivo
Conditions: DBA/1, mouse, plasma, oral; 30 mg/kg p.o., 2 hrs post-administration, day 20, mean±SEM, N=3; read-out: concentration in plasma
observationType: concentration at 2 h (ng/mL)
Use ng/mL as the unit, but write only the number.

Query string: Report concentration at 2 h for `CN1CCN(c2cccc(Nc3nc4c(-c5ccc(S(C)(=O)=O)cc5)cccn4n3)c2)CC1` please.
Result string: 2040
